TESTED SYSTEM: T1, TRCW5 antigen (CD3δε-Fc-Avi) (biotinylated (site not stated))
T1 construct: also called recombinant CD3
T1 sequence (chain, as listed by the source mutant limits assumed): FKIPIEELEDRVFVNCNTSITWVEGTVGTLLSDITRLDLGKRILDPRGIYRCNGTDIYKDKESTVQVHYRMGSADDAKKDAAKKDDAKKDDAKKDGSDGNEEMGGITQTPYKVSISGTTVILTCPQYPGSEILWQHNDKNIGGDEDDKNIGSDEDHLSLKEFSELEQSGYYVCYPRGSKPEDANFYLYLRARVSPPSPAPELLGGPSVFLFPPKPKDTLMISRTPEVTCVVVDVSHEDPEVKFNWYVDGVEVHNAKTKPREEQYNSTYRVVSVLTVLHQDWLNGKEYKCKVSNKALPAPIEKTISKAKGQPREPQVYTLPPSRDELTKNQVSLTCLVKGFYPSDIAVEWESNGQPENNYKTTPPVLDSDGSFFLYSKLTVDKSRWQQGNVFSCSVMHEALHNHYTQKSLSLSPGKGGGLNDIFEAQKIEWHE
METHOD DESCRIPTION: ELISA after heat
Consider the following binders; for each one, report its % Retained 55° C..
Numbers only, in %.

Consider the reported % Retained 55° C. for these binders:
{"BINDER": "CD3B2071 (scFv) scFv: QVQLVQSGAEVKKPGSSVKVSCKASGYTFTRSTMHWVRQAPGQGLEWMGYINPSSAYTNYNQKFQGRVTLTADKSTSTAYMELSSLRSEDTAVYYCASPQVHYDYNGFPYWGQGTLVTVSSGGSEGKSSGSGSESKSTGGSEIVLTQSPATLSASPGERVTLSCSASSSVSYMNWYQQKPGTAPRRLIYDSSKLASGVPARFSGSGSGRDYTLTISSLEPEDFAVYYCQQWSRNPPTFGGGTKVEIK", "% Retained 55° C., %": 103}
{"BINDER": "CD3B2041 (scFv) scFv: QVQLVQSGAEVKKPGSSVKVSCKASGYTFTRSTMHWVRQAPGQGLEWIGYINPSSAYTNYNQKFQGRVTLTADKSTSTAYMELSSLRSEDTAVYYCASPQVHYDYNGFPYWGQGTLVTVSSGGSEGKSSGSGSESKSTGGSEIVLTQSPATLSASPGERVTLSCSASSSVSYMNWYQQKPGTAPRRWIYDSSKLASGVPARFSGSGSGRDYTLTISSLEPEDFAVYYCQQWSRNPPTFGGGTKVEIK", "% Retained 55° C., %": 104}
{"BINDER": "CD3B2076 (scFv) scFv: QVQLVQSGAEVKKPGSSVKVSCKASGYTFTRSTMHWVRQAPGQGLEWIGYINPSSAYTNYAQKFQGRVTLTADKSTSTAYMELSSLRSEDTAVYYCASPQVHYDYNGFPYWGQGTLVTVSSGGSEGKSSGSGSESKSTGGSEIVLTQSPATLSASPGERVTLSCSASSSVSYMNWYQQKPGQAPRRLIYDSSKLASGVPARFSGSGSGRDYTLTISSLEPEDFAVYYCQQWSRNPPTFGGGTKVEIK", "% Retained 55° C., %": 100}
{"BINDER": "CD3B2040 (scFv) scFv: QVQLVQSGAEVKKPGSSVKVSCKASGYTFTRSTMHWVKQAPGQGLEWMGYINPSSAYTNYAQKFQGRVTLTADKSTSTAYMELSSLRSEDTAVYYCASPQVHYDYNGFPYWGQGTLVTVSSGGSEGKSSGSGSESKSTGGSEIVLTQSPATLSASPGERVTLSCSASSSVSYMNWYQQKPGQAPRRWIYDSSKLASGVPARFSGSGSGRDYTLTISSLEPEDFAVYYCQQWSRNPPTFGGGTKVEIK", "% Retained 55° C., %": 107}
{"BINDER": "CD3B2080 (scFv) scFv: QVQLVQSGAEVKKPGSSVKVSCKASGYTFTRSTMHWVRQAPGQGLEWIGYINPSSAYTNYAQKFQGRVTLTADKSTSTAYMELSSLRSEDTAVYYCASPQVHYDYNGFPYWGQGTLVTVSSGGSEGKSSGSGSESKSTGGSEIVLTQSPATLSASPGERVTLSCSASSSVSYMNWYQQKPGQSPRRWIYDSSKLASGVPARFSGSGSGRDYTLTISSLEPEDFAVYYCQQWSRNPPTFGGGTKVEIK", "% Retained 55° C., %": 109}
{"BINDER": "CD3B2026 (scFv) scFv: QVQLVQSGAEVKKPGSSVKVSCKASGYTFTRSTMHWVKQAPGQGLEWIGYINPSSAYTNYNQKFQGRVTLTADKSTSTAYMELSSLRSEDTAVYYCASPQVHYDYNGFPYWGQGTLVTVSSGGSEGKSSGSGSESKSTGGSEIVLTQSPATLSASPGERVTLSCSASSSVSYMNWYQQKPGTAPRRWIYDSSKLASGVPARFSGSGSGRDYTLTISSLEPEDFAVYYCQQWSRNPPTFGGGTKVEIK", "% Retained 55° C., %": 106}
{"BINDER": "CD3B2084 (scFv) scFv: QVQLVQSGAEVKKPGSSVKVSCKASGYTFTRSTMHWVRQAPGQGLEWMGYINPSSAYTNYAQKFQGRVTLTADKSTSTAYMELSSLRSEDTAVYYCASPQVHYDYNGFPYWGQGTLVTVSSGGSEGKSSGSGSESKSTGGSEIVLTQSPATLSASPGERVTLSCSASSSVSYMNWYQQKPGQAPRRLIYDSSKLASGVPARFSGSGSGRDYTLTISSLEPEDFAVYYCQQWSRNPPTFGGGTKVEIK", "% Retained 55° C., %": 108}
{"BINDER": "CD3B2085 (scFv) scFv: QVQLVQSGAEVKKPGSSVKVSCKASGYTFTRSTMHWVRQAPGQGLEWMGYINPSSAYTNYAQKFQGRVTLTADKSTSTAYMELSSLRSEDTAVYYCASPQVHYDYNGFPYWGQGTLVTVSSGGSEGKSSGSGSESKSTGGSEIVLTQSPATLSASPGERVTLSCSASSSVSYMNWYQQKPGTAPRRWIYDSSKLASGVPARFSGSGSGRDYTLTISSLEPEDFAVYYCQQWSRNPPTFGGGTKVEIK", "% Retained 55° C., %": 112}
{"BINDER": "CD3B2074 (scFv) scFv: QVQLVQSGAEVKKPGSSVKVSCKASGYTFTRSTMHWVRQAPGQGLEWIGYINPSSAYTNYAQKFQGRVTLTADKSTSTAYMELSSLRSEDTAVYYCASPQVHYDYNGFPYWGQGTLVTVSSGGSEGKSSGSGSESKSTGGSEIVLTQSPATLSASPGERVTLSCSASSSVSYMNWYQQKPGTSPRRWIYDSSKLASGVPARFSGSGSGRDYTLTISSLEPEDFAVYYCQQWSRNPPTFGGGTKVEIK", "% Retained 55° C., %": 104}

Asked: Please give the measured % Retained 55° C. for this binder: CD3B2073 (scFv) scFv: QVQLVQSGAEVKKPGSSVKVSCKASGYTFTRSTMHWVRQAPGQGLEWMGYINPSSAYTNYNQKFQGRVTLTADKSTSTAYMELSSLRSEDTAVYYCASPQVHYDYNGFPYWGQGTLVTVSSGGSEGKSSGSGSESKSTGGSEIVLTQSPATLSASPGERVTLSCSASSSVSYMNWYQQKPGQAPRRWIYDSSKLASGVPARFSGSGSGRDYTLTISSLEPEDFAVYYCQQWSRNPPTFGGGTKVEIK
Given back: 113
